Test: yeast display, Sf9 membrane polyspecificity reagent, FACS + sequencing; frameworks hold sequencing errors
reported property: polyreactivity (PSR sort gate)

Please review the entries below; each comes with its answer.
[[record]]
sequence_code = "QVQLVESGGGLVQAGGSLRLSCAASGRTFVYYAMGWYRQAPGKERELVAAITSGGNTYYADSVKGRFTISRDNAKNTDYLQMNSLKPEDTAVYYCAAKRRRSFDYWGQGTQVTVSS"
result = "high polyreactivity"

[[record]]
sequence_code = "QVQLVESGGGLVQAGGSLRLSCAASGRIFARYAMGWNRQAPGKERELVAAISFRGGSTYYADSVKGRFTISRDNAKNTVYLQINSLKPEDTAVYYWNARYGRGGYDYWGQGTQVTVSS"
result = "high polyreactivity"

[[record]]
sequence_code = "QVQLVESGGGLVQAGGSLRLSCAASGRIFWTYAMGWYRQAPGKERELVASITWSGGTTYYADSVKGRFTISRDNAKNTVYLQMNSLKTEDTAVYYCNTDVLAPYDSGYWGQGTQVTVSS"
result = "low polyreactivity"

[[record]]
sequence_code = "QVQLVESGGGLVQAGGSIRLSCAASASIFQSYAMGWYRQAAGKERELVATITYSAGSTYYSDSVKGRFTITRDNAKNTVYLQMNSLKPEDTAVYYCDARRRGTIKTRMDYWGQGTQVTVSS"
result = "high polyreactivity"


// next item, polyreactivity (PSR sort gate) requested
Problem: Complete the entry with polyreactivity (PSR sort gate) for QVQLVESGGGLVQAGGSLRLSCAASGIIFLDYVMGWYRQAPGKERELVAAINSGGSTYYADSVKGRFTISRDNAKNTVYLQMNSLKPEDTAVYYCAADDYYKFDYWGQGTQVTVSS
Solution: low polyreactivity
